test: Preliminary pharmacokinetics in SD rats; type: in vivo; conditions: male, SD, rat, plasma, iv, 2 mg/kg, i.v. 2 mg/kg, 2 h; read-out: Concentration of BH in rat plasma, individual rats No1-No3
readout.type: concentration at 2 h (ng/mL)
Record the value in ng/mL, omitting the unit from your answer.

Prompt: Param item = `CC1=CC(=O)[C@@H](O)[C@]2(C)[C@H]3[C@@H](O)[C@H](O)[C@@]4(CO)OC[C@@]35[C@@H](C[C@@H]12)OC(=O)[C@H](O)[C@]54O` ; retrieve measured concentration at 2 h.
Response: 104

---

assay: Preliminary pharmacokinetics in SD rats; assay type: in vivo; details: male, SD, rat, plasma, po, 10 mg/kg, p.o. 10 mg/kg, 6 h; read-out: Concentration of BH in rat plasma, individual rats No1-No3
readout.type: concentration at 6 h (ng/mL)
Output spec: scalar in ng/mL, unitless text.

Prompt: Name the recorded concentration at 6 h for `CC1=CC(=O)[C@@H](O)[C@]2(C)[C@H]3[C@@H](O)[C@H](O)[C@@]4(CO)OC[C@@]35[C@@H](C[C@@H]12)OC(=O)[C@H](O)[C@]54O` .
Response: 97.6

---

assay: Preliminary pharmacokinetics in SD rats; assay type: in vivo; settings: male, SD, rat, plasma, iv, 2 mg/kg, i.v. 2 mg/kg, 6 h; read-out: Concentration of BH in rat plasma, Mean
readout.type: concentration at 6 h (ng/mL)
All answers are understood in ng/mL, so give the number only.

Prompt: Fill in the blank: the reported concentration at 6 h of `CC1=CC(=O)[C@@H](O)[C@]2(C)[C@H]3[C@@H](O)[C@H](O)[C@@]4(CO)OC[C@@]35[C@@H](C[C@@H]12)OC(=O)[C@H](O)[C@]54O` is ____.
Response: 40

---

assay: Preliminary pharmacokinetics in SD rats; format: in vivo; settings: male, SD, rat, plasma, po, 10 mg/kg, p.o. 10 mg/kg, 8 h; read-out: Concentration of BH in rat plasma, Mean
readout.type: concentration at 8 h (ng/mL)
Report the value in ng/mL with no unit label.

Prompt: What value of measured concentration at 8 h is listed for `CC1=CC(=O)[C@@H](O)[C@]2(C)[C@H]3[C@@H](O)[C@H](O)[C@@]4(CO)OC[C@@]35[C@@H](C[C@@H]12)OC(=O)[C@H](O)[C@]54O` ?
Response: 42.3

---

Test: Preliminary pharmacokinetics in SD rats
Assay type: in vivo
Settings: male, SD, rat, plasma, iv, 2 mg/kg, rat, i.v.; read-out: AUC (0-t), Mean
Method: We administered BH by gavage and intravenous administration to SD rats (male, 200–220 g, n = 6) after they had fasted for 12 h. For oral gavage, the BH was dissolved in DMSO/0.5% CMC-Na (5/95, v/v/), and for intravenous administration, it was dissolved in DMSO/0.9% NaCl (5/95, v/v/), and then the blood samples were collected at intervals to determine the pharmacokinetic (PK) profiles of SD rats.
readout.type: AUC(0-t)
Field: value (include unit after the number)

Prompt: For `CC1=CC(=O)[C@@H](O)[C@]2(C)[C@H]3[C@@H](O)[C@H](O)[C@@]4(CO)OC[C@@]35[C@@H](C[C@@H]12)OC(=O)[C@H](O)[C@]54O` , what is its reported AUC(0-t)?
Response: 944 ng·h/mL
